assayed target: human glucagon receptor (hGCGR) (human, UniProt P47871 26-477)
Sequence (P47871 26-477): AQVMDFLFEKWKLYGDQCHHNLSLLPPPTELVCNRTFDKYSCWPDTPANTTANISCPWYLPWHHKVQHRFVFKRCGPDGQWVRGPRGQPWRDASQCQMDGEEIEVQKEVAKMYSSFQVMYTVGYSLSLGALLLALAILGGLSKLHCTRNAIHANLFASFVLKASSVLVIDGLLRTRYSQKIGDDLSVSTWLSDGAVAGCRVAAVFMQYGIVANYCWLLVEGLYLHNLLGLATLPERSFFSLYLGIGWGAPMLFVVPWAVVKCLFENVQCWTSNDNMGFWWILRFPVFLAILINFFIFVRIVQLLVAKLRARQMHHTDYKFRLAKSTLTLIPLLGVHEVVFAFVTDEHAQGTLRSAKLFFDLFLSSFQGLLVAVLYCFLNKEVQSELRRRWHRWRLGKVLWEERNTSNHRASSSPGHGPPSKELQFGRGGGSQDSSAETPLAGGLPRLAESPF
experiment notes: cell-based or functional assay
Starred links: 1 amine or outer side, 2 acyl side, 3 side chain; linkers in the order of their positions; H or OH if unused. Non-standard residues stand in square brackets, D forms with d. Groups on a side chain read outwards from the residue. Primed or numbered codes have the meaning given here. No end group written: not given here. *: point of attachment. C18 diacid = O=C(O)CCCCCCCCCCCCCCCCC(=O)*; Dip = N[C@H](C(=O)O)C(c1ccccc1)c1ccccc1; γGlu = O=C(O)[C@H](CCC(=O)[*:2])N[*:1]; Stearoyl = CCCCCCCCCCCCCCCCCC(=O)*; Palmitoyl = CCCCCCCCCCCCCCCC(=O)*; αMeF = C[C@](N)(Cc1ccccc1)C(=O)O; Myristoyl = CCCCCCCCCCCCCC(=O)*; (PEG)2 = polyethylene glycol 2; PEG2′ = polyethylene glycol 2; PEG4′ = polyethylene glycol; Dodecyl = CCCCCCCCCCCC*; AEEA = NCCOCCOCC(=O)O; Aib = CC(C)(N)C(=O)O
Please go through the items and note down their hGluc-R EC50 (pM).
Report the value in pM with no unit label.

The value of hGluc-R EC50 (pM) measured for the binder H[Aib]QGS[αMeF]TSDVSKILDSK([PEG2′-PEG2′-γGlu-Myristoyl])AAQD[αMeF]VQ[Aib]IINT-NH2 [Peptide 129] turned out to be 4.1

The value of hGluc-R EC50 (pM) measured for the binder H[Aib]QGS[αMeF]TSDVSK[Dip]LDSK([(PEG)2-(PEG)2-γGlu-Palmitoyl])AAQD[αMeF]VQ[Aib]IAN-NH2 [Peptide 67] turned out to be 9.49

The value of hGluc-R EC50 (pM) measured for the binder HSQGS[αMeF]TSDVSK[Dip]LDSK([γGlu-γGlu-(PEG)2-(PEG)2-Stearoyl])AAQD[αMeF]VE[Aib]IINT-NH2 [Peptide 59] turned out to be 28.4

The value of hGluc-R EC50 (pM) measured for the binder HSQGS[αMeF]TSDVSK[Dip]LDSK([(PEG)2-(PEG)2-γGlu-γGlu-Dodecyl])AAQD[αMeF]VE[Aib]IINT-NH2 [Peptide 62] turned out to be 15.2

The value of hGluc-R EC50 (pM) measured for the binder HSQGS[αMeF]TSDVSK(Ac)[Aib]LDSK([PEG2′-PEG2′-γGlu-γGlu-Stearyl])AAQD[αMeF]VQ[Aib]IAN-NH2 [Peptide 110] turned out to be 48.5

The value of hGluc-R EC50 (pM) measured for the binder HSQGS[αMeF]TSDVSKILDSK([PEG2′-PEG2′-γGlu-Stearoyl])AAQD[αMeF]VQ[Aib]IINT-NH2 [Peptide 120] turned out to be 2.62

The value of hGluc-R EC50 (pM) measured for the binder HSQGS[αMeF]TSDVSKILDSKAAQD[αMeF]VQ[Aib]IAN-NH2 (not fully specified (residue 17)) [Peptide 111] turned out to be 2.09

The value of hGluc-R EC50 (pM) measured for the binder HSQGS[αMeF]TSDVSKILDSK([PEG2′-PEG2′-γGlu-Myristoyl])AAQD[αMeF]VQ[Aib]IINT-NH2 [Peptide 122] turned out to be 0.857

The value of hGluc-R EC50 (pM) measured for the binder H[Aib]QGTFTSDYSK[αMeF]LDSK([AEEA-AEEA-γGlu-C18 diacid])RAQDFVQWLV[PEG4′]-NH2 [Peptide 41] turned out to be 5740

The value of hGluc-R EC50 (pM) measured for the binder HSQGS[αMeF]TSDVSKILDSK([PEG2′-PEG2′-γGlu-Palmitoyl])AAQD[αMeF]VQ[Aib]IINT-NH2 [Peptide 121] turned out to be 1.2
